test system: HEL 299 fibroblasts (ATCC-CCL-137); experiment: Cell viability and proliferation assay (WST8/CCK-8); assay type: cell-based, human; conditions: compound at 100 μM; mean and standard deviation; relative to untreated controls
Label YES when Percentage values of cell viability, HEL 299 < 60%; otherwise NO.

[
  {
    "Compound": "CCCCCCCC(=O)N/N=C/c1cc(S(=O)(=O)[O-])cc(OC)c1[O-].[Cl-].[Cu+2].[Na+] [Compound 13, [NaCu(HL7)Cl]]",
    "Tested on": "HEL 299 fibroblasts (ATCC-CCL-137)",
    "Label class": "NO"
  },
  {
    "Compound": "COc1cc(S(=O)(=O)[O-])cc(/C=N/NC(N)=S)c1[O-].[Cl-].[Cu+2].[Na+] [Compound 8]",
    "Tested on": "HEL 299 fibroblasts (ATCC-CCL-137)",
    "Label class": "NO"
  },
  {
    "Compound": "COc1cc(S(=O)(=O)[O-])cc(/C=N/NC(N)=O)c1[O-].[Cl-].[Cu+2].[Na+] [Compound 10, [NaCu(HL6)Cl]]",
    "Tested on": "HEL 299 fibroblasts (ATCC-CCL-137)",
    "Label class": "NO"
  },
  {
    "Compound": "CCNC(=S)N/N=C/c1cccc(OC)c1[O-].[Cl-].[Cu+2] [Compound 4]",
    "Tested on": "HEL 299 fibroblasts (ATCC-CCL-137)",
    "Label class": "YES"
  },
  {
    "Compound": "CCNC(=S)N/N=C/c1cc(S(=O)(=O)[O-])cc(OC)c1[O-].[Cl-].[Cu+2].[Na+] [Compound 9]",
    "Tested on": "HEL 299 fibroblasts (ATCC-CCL-137)",
    "Label class": "NO"
  }
]

Does the reported Percentage values of cell viability, HEL 299 of the following compound sit strictly below 60%? COc1cccc(/C=N/NC(N)=O)c1[O-].[Cl-].[Cu+2] [Compound 5, [Cu(HL3)Cl]∙0.5H2O∙0.5CH3OH]
YES
